- Measured Target: rL-FABP (Mus musculus, UniProt P12710)
- Construct: made in house; host or cells: Escherichia coli BL21 (DE3)
- Test: ANS equilibrium binding to native rL-FABP (fluorescence)
- Protocol Conditions: read-out: Kd2; native rL-FABP, secondary site

# Chemical String, Kd
measured = [
    ("O=S(=O)(O)c1cccc2cccc(Nc3ccccc3)c12", "6.17 µM"),
]

* * *

- Measured Target: rL-FABP (Mus musculus)
pKi: −log10 of the molar value.
Collected pKi values appear next to each entry.

# Chemical String, Measured Target, pKi
measured = [
    ("CCCCCCCCCCCCCCCCCC(=O)O", "rL-FABP (Mus musculus)", 5.92),
    ("CCCCCCCC/C=C\\CCCCCCCC(=O)O", "rL-FABP (Mus musculus)", 5.23),
    ("CCCCC/C=C\\C/C=C\\CCCCCCCC(=O)O", "rL-FABP (Mus musculus)", 5.81),
]

* * *

- Measured Target: PG + 5X 4-HNE treated rL-FABP (Mus musculus)
- Construct: made in house; host or cells: Escherichia coli BL21 (DE3)
- Sequence (P12710 1-127): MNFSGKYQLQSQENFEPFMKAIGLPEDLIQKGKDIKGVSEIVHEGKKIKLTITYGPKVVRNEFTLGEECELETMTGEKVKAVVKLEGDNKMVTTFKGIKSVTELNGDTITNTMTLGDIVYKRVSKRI
- Test: ANS equilibrium binding to PG + 5X 4-HNE treated rL-FABP
pKd: −log10 of the molar value.

# Compound, pKd
data = [
    ("O=S(=O)(O)c1cccc2cccc(Nc3ccccc3)c12 [ANS, 1-Anilinonaphthalene-8-Sulfonic Acid]", 6.49),
]

* * *

- Measured Target: rL-FABP (Mus musculus, UniProt P12710)
- Construct: made in house; host or cells: Escherichia coli BL21 (DE3)
- Test: ANS equilibrium binding to native rL-FABP (fluorescence)

# Compound, Unit Annotation, Kd
measured = [
    ("O=S(=O)(O)c1cccc2cccc(Nc3ccccc3)c12 [ANS, 1-Anilinonaphthalene-8-Sulfonic Acid]", "nM", 347),
]

* * *

- Measured Target: PG treated rL-FABP (Mus musculus, UniProt P12710)
- Construct: made in house; host or cells: Escherichia coli BL21 (DE3)
- Test: ANS equilibrium binding to phenylglyoxal (PG) treated rL-FABP
pKd: −log10 of the molar value.
Attribute Measured: pKd

# Chemical String, Measured Target, Attribute Measured, Observed Value
data = [
    ("O=S(=O)(O)c1cccc2cccc(Nc3ccccc3)c12", "PG treated rL-FABP (Mus musculus, UniProt P12710)", "pKd", 6.78),
]

* * *

- Measured Target: PG treated rL-FABP (Mus musculus)
- Construct: made in house; host or cells: Escherichia coli BL21 (DE3)
- Sequence (P12710 1-127): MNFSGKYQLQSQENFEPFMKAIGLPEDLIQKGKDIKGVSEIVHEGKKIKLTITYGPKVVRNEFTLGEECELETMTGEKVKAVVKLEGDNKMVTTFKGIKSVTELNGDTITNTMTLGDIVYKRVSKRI
- Test: ANS equilibrium binding to phenylglyoxal (PG) treated rL-FABP
- Protocol Conditions: read-out: Kd2; rL-FABP treated with PG 10 mM
pKd: −log10 of the molar value.

# Compound, pKd
measured = [
    ("O=S(=O)(O)c1cccc2cccc(Nc3ccccc3)c12 [ANS, 1-Anilinonaphthalene-8-Sulfonic Acid]", 5.14),
]

* * *

- Measured Target: PG + 5X 4-HNE treated rL-FABP (Mus musculus)
- Construct: made in house; host or cells: Escherichia coli BL21 (DE3)
- Test: ANS equilibrium binding to PG + 5X 4-HNE treated rL-FABP
- Protocol Conditions: read-out: Kd2; rL-FABP treated with 5X 4-HNE + PG
pKd: −log10 of the molar value.
Attribute Measured: pKd

# Chemical String, Observed Value
records = [
    ("O=S(=O)(O)c1cccc2cccc(Nc3ccccc3)c12", 4.55),
]

* * *

- Measured Target: 4-HNE modified rL-FABP (Mus musculus)
- Construct: made in house; host or cells: Escherichia coli BL21 (DE3)
- Test: ANS equilibrium binding to 4-HNE treated rL-FABP (fluorescence)
- Protocol Conditions: read-out: Kd2; rL-FABP treated with 1X 4-HNE (53.93 µM)
pKd: −log10 of the molar value.
Attribute Measured: pKd

# Compound, Measured Target, Observed Value
measured = [
    ("O=S(=O)(O)c1cccc2cccc(Nc3ccccc3)c12 [ANS, 1-Anilinonaphthalene-8-Sulfonic Acid]", "4-HNE modified rL-FABP (Mus musculus)", 5.30),
]
